Values from patent EP2997966A1

biological target: human Keap1 kelch domain (amino acids Ala321-Thr609) (Homo sapiens); construct: human Keap1 kelch domain (amino acids Ala321-Thr609); test: Keap1-Nrf2 peptide binding assay (fluorescence polarisation); settings: binding to fluorescently labeled human Nrf2 peptide; 20 nM Keap1 kelch domain, 50 nM peptide
Each record here notes measured pIC50.
# pIC50: negative log10 of molar concentration; output just the value

- O=C(O)[C@@H]1CCN(c2ccc(NS(=O)(=O)c3cc(Cl)ccc3Cl)c3ccccc23)C1: 5.60

Q: Hi! What's the reported pIC50 for "Cc1nn(C)c(C)c1S(=O)(=O)Nc1ccc(N2CC[C@H](C(=O)O)C2)c2ccccc12" on human Keap1 kelch domain (amino acids Ala321-Thr609) (Homo sapiens)?
A: 5.35

Q: Hi! What's the reported pIC50 for "Cc1nc(C)c(S(=O)(=O)Nc2ccc(N3CC[C@@H](C(=O)O)C3)c3ccccc23)s1" on human Keap1 kelch domain (amino acids Ala321-Thr609) (Homo sapiens)?
A: 5.80

Q: Hi! What's the reported pIC50 for "O=C(O)[C@H]1CCN(c2ccc(NS(=O)(=O)c3cc(Cl)ccc3Cl)c3ccccc23)C1" on human Keap1 kelch domain (amino acids Ala321-Thr609) (Homo sapiens)?
A: 5.24

Q: Hi! What's the reported pIC50 for "Cc1nn(-c2ccccc2)c(C)c1S(=O)(=O)Nc1ccc(N2CC[C@H](C(=O)O)C2)c2ccccc12" on human Keap1 kelch domain (amino acids Ala321-Thr609) (Homo sapiens)?
A: 5.39

Q: Hi! What's the reported pIC50 for "COc1ccc(S(=O)(=O)Nc2ccc(N3CC[C@@H](C(=O)O)C3)c3ccccc23)c(OC)c1" on human Keap1 kelch domain (amino acids Ala321-Thr609) (Homo sapiens)?
A: 5.21

Q: Hi! What's the reported pIC50 for "O=C(O)[C@@H]1CCN(c2ccc(NS(=O)(=O)c3cc(F)c(F)cc3Cl)c3ccccc23)C1" on human Keap1 kelch domain (amino acids Ala321-Thr609) (Homo sapiens)?
A: 5.35

Q: Hi! What's the reported pIC50 for "Cc1nn(C)c(Cl)c1S(=O)(=O)Nc1ccc(N2CC[C@@H](C(=O)O)C2)c2ncccc12" on human Keap1 kelch domain (amino acids Ala321-Thr609) (Homo sapiens)?
A: 5.57

###

target: human Keap1 kelch domain (amino acids Ala321-Thr609) (Homo sapiens); construct: human Keap1 kelch domain (amino acids Ala321-Thr609); assay: Keap1-Nrf2 peptide binding assay (fluorescence polarisation); settings: binding to fluorescently labeled human Nrf2 peptide; 20 nM Keap1 kelch domain, 50 nM peptide; read-out: IC50
Could you please mark condition met for values of IC50 below 4 µM and condition not met for values at or above it?

* O=C(O)[C@@H]1CCN(c2ccc(NS(=O)(=O)c3cccc(Cl)c3Cl)c3ccccc23)C1 | condition met

Q: Take the molecule "CCCCn1cc(S(=O)(=O)Nc2ccc(N3CC[C@@H](C(=O)O)C3)c3ccccc23)c(C)n1" and say whether its IC50 is less than 4 µM.
A: condition met

Q: Take the molecule "COc1ccc(F)c(S(=O)(=O)Nc2ccc(N3CC[C@H](C(=O)O)C3)c3ccccc23)c1" and say whether its IC50 is less than 4 µM.
A: condition not met

Q: Take the molecule Cc1cc(C)c(C)c(S(=O)(=O)Nc2ccc(N3CCCC(C(=O)O)C3)c3ccccc23)c1C (centres unmarked) and say whether its IC50 is less than 4 µM.
A: condition met

###

molecular target: human Keap1 kelch domain (amino acids Ala321-Thr609) (Homo sapiens); construct: human Keap1 kelch domain (amino acids Ala321-Thr609); assay: Keap1-Nrf2 peptide binding assay (fluorescence polarisation); settings: binding to fluorescently labeled human Nrf2 peptide; 20 nM Keap1 kelch domain, 50 nM peptide; read-out: IC50
Outcome Measure: IC50
Please state the value followed by its unit.

Q: What measured IC50 goes with Cc1cc(C)c(C)c(S(=O)(=O)Nc2ccc(C3=CCC(C(=O)O)CC3)c3ccccc23)c1C (stereo not shown) ?
A: 0.6 µM

Q: What measured IC50 goes with "Cc1c(S(=O)(=O)Nc2ccc(N3CC[C@@H](C(=O)O)C3)c3ccccc23)cnn1C1CCCC1" ?
A: 2.8 µM

###

target: human Keap1 kelch domain (amino acids Ala321-Thr609) (Homo sapiens, UniProt Q14145); construct: human Keap1 kelch domain (amino acids Ala321-Thr609); experiment: Keap1-Nrf2 peptide binding assay (fluorescence polarisation); conditions: binding to fluorescently labeled human Nrf2 peptide; 20 nM Keap1 kelch domain, 50 nM peptide; read-out: IC50
Sequence (Q14145 321-609): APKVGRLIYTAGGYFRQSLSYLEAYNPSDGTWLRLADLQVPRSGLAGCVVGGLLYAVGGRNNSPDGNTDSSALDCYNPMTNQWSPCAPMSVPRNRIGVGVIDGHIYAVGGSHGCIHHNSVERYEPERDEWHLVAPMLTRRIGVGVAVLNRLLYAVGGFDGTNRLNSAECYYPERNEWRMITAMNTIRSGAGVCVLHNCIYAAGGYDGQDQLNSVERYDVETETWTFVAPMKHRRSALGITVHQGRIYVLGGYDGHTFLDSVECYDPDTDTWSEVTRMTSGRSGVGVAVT
Each record here notes measured pIC50.
# pIC50: negative log10 of molar concentration; output just the value

• Cc1c(S(=O)(=O)Nc2ccc(N3CC[C@@H](C(=O)O)C3)c3ncccc23)sc2cccc(F)c12 = 6.52
• Cc1c(Cl)cccc1S(=O)(=O)Nc1ccc(N2CC[C@@H](C(=O)O)C2)c2ccccc12 = 6.10
• Cc1nn(C)c(Cl)c1S(=O)(=O)Nc1ccc(N2CCC(C(=O)O)C2)c2ccccc12 (centres unmarked) = 5.92

Q: What measured pIC50 goes with "Cc1c(S(=O)(=O)Nc2ccc(N3CC[C@H](C(=O)O)C3)c3ccccc23)cnn1CC(C)C" ?
A: 5.15

Q: What measured pIC50 goes with "O=C(O)[C@@H]1CCN(c2ccc(NS(=O)(=O)c3ccc(Cl)cc3Cl)c3ccccc23)C1" ?
A: 5.89

###

molecular target: human Keap1 kelch domain (amino acids Ala321-Thr609) (Homo sapiens, UniProt Q14145); construct: human Keap1 kelch domain (amino acids Ala321-Thr609); assay: Keap1-Nrf2 peptide binding assay (fluorescence polarisation); conditions: binding to fluorescently labeled human Nrf2 peptide; 20 nM Keap1 kelch domain, 50 nM peptide; read-out: IC50
Each record here notes measured log10 IC50.
Each number you see is log10 of IC50, and the unit inside the log is µM.

* Cc1nn(C)c(Cl)c1S(=O)(=O)Nc1ccc(N2CCC(C)(C(=O)O)C2)c2ccccc12 (centres unmarked) [Example 10] | 0.00
* O=C(O)[C@@H]1CCN(c2ccc(NS(=O)(=O)c3cc(Cl)cc(Cl)c3)c3ccccc23)C1 [Example 33] | 0.23
* Cc1c(S(=O)(=O)Nc2ccc(N3CC[C@@H](C(=O)O)C3)c3ccccc23)sc2cccc(F)c12 [Example 60] | -0.89
* CCCCn1cc(S(=O)(=O)Nc2ccc(N3CC[C@H](C(=O)O)C3)c3ccccc23)c(C)n1 [Example 11] | 0.70

Q: What measured log10 IC50 goes with Cc1c(S(=O)(=O)Nc2ccc(N3CC[C@@H](C(=O)O)C3)c3ccccc23)c2ccccc2n1C [Example 63] ?
A: -0.59
